Attribution: PubChem BioAssay

# PROTOCOL_SUMMARY: serotonin-gated TRPC4 signal block – cell-based, second counter screen, HEK293 TRPC4/5HT1a, Fluo-4, counter-screen for TRPC4 inhibitor project, confirmation (AID 434978)
# MEASUREMENT_CONTEXT: Fluo-4 calcium flux, at 10 µM, serotonin added to trigger calcium flux
The source made the active and inactive calls.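 Rule for the calls: active = primary screen active whose calcium signal fell more than 3 SD beyond the full-serotonin control mean in both duplicate plates; inactive = the rest.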
Outcomes you can answer with include only these: yes = active, no = inactive

# count of solved cases: 3
Cc1ccc(S(=O)(=O)c2cnc(-c3ccccc3)nc2N2CCN(C)CC2)cc1 : no
CN(C)CCCN(Cc1cc2cc3c(cc2[nH]c1=O)OCO3)C(=S)NCc1ccco1 : yes
O=C1Nc2cc(C(=O)NCCCN3CCOCC3)ccc2S/C1=C/c1ccccc1F : no

Q: What was the test verdict on `COc1nc(N=C(N)N)nc2ccc(C)cc12` ?
A: yes

Q: Quick one: `O=C(C[n+]1cc(-c2ccc(Br)cc2)n2c1CCCCC2)c1ccccc1`
A: no

Q: Quick one: `OCC1(CCc2ccccc2)CCN(Cc2cc(Cl)ccc2O)CC1`
A: no

---

# Tested on: TRPC4 beta (transient receptor potential cation channel C4), mouse
# PROTOCOL_SUMMARY: TRPC4 cation channel opening, retest – cell-based, Fluo4 calcium, HEK293 TRPC4beta/mu-opioid, duplicates, 10 µM, confirmation (AID 2426)
# MEASUREMENT_CONTEXT: Fluo4 calcium fluorescence, at 10 µM
Active and inactive are the calls of the source.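 Rule for the calls: active = fluorescence ratio normalized to control raised more than 50% in primary screen plus both repeat runs; inactive = the rest.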
Outcomes you can answer with include only these: active, inactive

# count of solved cases: 4
CCCc1ccc(OCc2ccc(C(=O)N3CCCC3)o2)cc1 : inactive
C/C(=N/Nc1ccnc2cc(Cl)ccc12)c1ccc(N)cc1 : inactive
O=C(NN/C(=N/S(=O)(=O)c1ccc(Cl)cc1)c1ccccc1)c1cccc(Cl)c1 : inactive
Cc1ccc(Cn2c(=N)c(C(=O)NC3CCCCC3)cc3c(=O)n4ccccc4nc32)cc1 : inactive

Q: What was the test verdict on `CCCCN(C)CCNC(=O)c1ccc(Cn2c(=S)[nH]c3ccc(Br)cc3c2=O)cc1` ?
A: inactive

Q: Quick one: `O=C(NC1CCCC1)c1cc2ccccc2o1`
A: inactive

Q: Quick one: `CCCCN(C)C(=O)Cn1ncc2c3ccccc3n(CCC)c2c1=O`
A: inactive

Q: Quick one: `Cc1cccc(NC(=O)c2cc([N+](=O)[O-])ccc2N2CCN(C)CC2)c1`
A: inactive

Q: Quick one: O=C(NC1CCCN(Cc2ccc(Cl)cc2)C1)C1CCC1 (stereo unspecified)
A: active

Q: Quick one: `COC(=O)[C@H](Cc1ccccc1)NC(=O)c1ccc2ccccc2n1`
A: inactive

Q: Quick one: `CN(C)S(=O)(=O)N1CCC(CCCC2CCN(S(=O)(=O)N(C)C)CC2)CC1`
A: inactive

---

# System: transient receptor potential cation channel C4 beta (TRPC4), mouse
# PROTOCOL_SUMMARY: TRPC4 cation channel opening, second retest – cell-based, second round, Fluo4, HEK293 TRPC4beta/mu-opioid, 1 µM, confirmation (AID 2461)
# MEASUREMENT_CONTEXT: Fluo4 calcium fluorescence, at 1 µM
Active and inactive are the calls of the source.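 The calls were made as follows: active = primary screen active and over 50% activation in each of two duplicate runs; inactive = the rest.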
Outcomes you can answer with include only these: yes = active, no = inactive

# count of solved cases: 10
CCCCCCCCCCOC(=O)Cn1c(COc2ccccc2)[n+](C)c2ccccc21 : no
CCOC(=O)C1(Cc2cccc(F)c2)CCN(Cc2cnn(CC)c2C)CC1 : yes
CN1CCN(c2ccc(NC(=O)COc3cccc4ccccc34)cc2)CC1 : no
CCOC(=O)CC(NC(=O)c1cc2cc(Br)ccc2oc1=O)c1cccc([N+](=O)[O-])c1 (stereo unspecified) : no
COc1ccc(CN2CCN(c3nc4ccccc4s3)CC2)cc1 : no
COC(=O)c1c(NC(=O)CSc2ncn[nH]2)sc(C)c1C : no
Cc1cccc(NC(=O)CSc2nnc(-c3cc(C)n(-c4ccccc4)c3C)o2)c1C : no
Cc1ccc(NC(=O)CN2CCc3ccccc3C2)cc1S(=O)(=O)N1CCOCC1 : no
CC(C)CCOc1ccc(C(=O)NCC(c2ccco2)N(C)C)cc1 (stereo unspecified) : no
c1ccc(Cc2nc3ccccc3n2Cc2ccccc2)cc1 : no

Q: What was the test verdict on COc1ccc(CC(=O)NCC(c2ccc(OC)cc2)N(C)C)cc1 (stereo unspecified) ?
A: yes

---

# Tested on: TRPC4 beta (transient receptor potential cation channel C4), mouse
# PROTOCOL_SUMMARY: potentiation of DAMGO EC20 TRPC4 response – cell-based, Fluo-4, HEK293 TRPC4beta/mu-opioid, confirmation (AID 2555)
# MEASUREMENT_CONTEXT: DAMGO EC20, Fluo-4 calcium flux, at 10 µM
Active and inactive are the calls of the source.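 How the source made its calls: active means primary screen hit whose calcium fluorescence ratio, in both repeats, exceeds the weak agonist control mean by 3 SD; inactive means the rest.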
Outcomes you can answer with include only these: active, inactive

O=[N+]([O-])c1cccc(CSc2nnc(Cc3ccccc3)n2-c2ccc(F)cc2)c1 : inactive
O=C(c1ccco1)N1CCN(C/C=C/c2ccccc2)CC1 : inactive
CC(=O)C1=C(O)C(=O)N(Cc2ccco2)C1c1ccc2c(c1)OCO2 (stereo not drawn) : inactive
Cc1cc(N2CCC(C)CC2)nc2cccc(O)c12 : inactive
COC(=O)C1=C(C)NC2=C(C(=O)c3ccccc32)C1c1ccc(-c2ccc(C(=O)O)cc2)o1 (stereo not drawn) : inactive

Q: What was the test verdict on CC1CCCN(C2=C(NS(=O)(=O)c3ccc(Br)cc3)C(=O)c3ccccc3C2=O)C1 (stereo not drawn) ?
A: inactive

Q: Quick one: `Cc1ccc(C(=O)OCCN2CCN(c3ncc(C(F)(F)F)cc3Cl)CC2)cc1`
A: active

Q: Quick one: `CCN1CCN(c2ccc(S(=O)(=O)N3CCOCC3)cc2NC(=O)c2ccccc2SC)CC1`
A: inactive

Q: Quick one: O=C(c1ccccc1)C1CCc2occc2C1=O (stereo not drawn)
A: inactive

Q: Quick one: `c1ccc2c(c1)[nH]c1c(N3CCCC3)ncnc12`
A: inactive

Q: Quick one: `O=[N+]([O-])c1cc(Cc2ccccc2)cc(C=Nc2ccc(N3CCOCC3)cc2)c1O`
A: inactive

Q: Quick one: `Cc1cc(N/N=C/c2ccccc2F)c2ccccc2n1`
A: inactive

Q: Quick one: `CCOC(=O)c1cn(Cc2ccccc2)c(C(=O)OC(C)(C)C)c1O`
A: inactive

Q: Quick one: `O=C(c1ccccc1)c1coc2ccc(O)c(CN3CCOCC3)c12`
A: inactive

Q: Quick one: `CCOC(=O)C1(Cc2ccccc2)CCN(Cc2ccc(C)s2)CC1`
A: inactive

Q: Quick one: `CCOC(=O)CCSc1nc(C)cc(C(F)(F)F)c1C#N`
A: inactive

Q: Quick one: `CC12CC3(C)CC(C)(C1)CC(NC(=O)N1CCCC1)(C2)C3`
A: inactive

Q: Quick one: `Cc1cccn2c(=O)c(/C=N/O)c(N3CCCC3)nc12`
A: inactive

Q: Quick one: `Cc1ccc(Nc2cc(C)nc3c(C)cccc23)cc1`
A: inactive

Q: Quick one: `CCCc1ccc(OCc2ccc(C(=O)N3CCCC3)o2)cc1`
A: active

Q: Quick one: `CC(C)C1=Nc2cccc3cccc(c23)N1`
A: inactive

Q: Quick one: `CCc1c(C)nc2c(-c3ccccc3)c(C)nn2c1Nc1ccc(NC(C)=O)cc1`
A: active

Q: Quick one: O=C(c1cccc([N+](=O)[O-])c1)N1CCCC(C(=O)N2CCCCCC2)C1 (stereo not drawn)
A: inactive

---

# MEASURED_ON: Short transient receptor potential channel 4 (Mus musculus) (UniProt Q9QUQ5)
# Sequence (Q9QUQ5 whole entry, looked up): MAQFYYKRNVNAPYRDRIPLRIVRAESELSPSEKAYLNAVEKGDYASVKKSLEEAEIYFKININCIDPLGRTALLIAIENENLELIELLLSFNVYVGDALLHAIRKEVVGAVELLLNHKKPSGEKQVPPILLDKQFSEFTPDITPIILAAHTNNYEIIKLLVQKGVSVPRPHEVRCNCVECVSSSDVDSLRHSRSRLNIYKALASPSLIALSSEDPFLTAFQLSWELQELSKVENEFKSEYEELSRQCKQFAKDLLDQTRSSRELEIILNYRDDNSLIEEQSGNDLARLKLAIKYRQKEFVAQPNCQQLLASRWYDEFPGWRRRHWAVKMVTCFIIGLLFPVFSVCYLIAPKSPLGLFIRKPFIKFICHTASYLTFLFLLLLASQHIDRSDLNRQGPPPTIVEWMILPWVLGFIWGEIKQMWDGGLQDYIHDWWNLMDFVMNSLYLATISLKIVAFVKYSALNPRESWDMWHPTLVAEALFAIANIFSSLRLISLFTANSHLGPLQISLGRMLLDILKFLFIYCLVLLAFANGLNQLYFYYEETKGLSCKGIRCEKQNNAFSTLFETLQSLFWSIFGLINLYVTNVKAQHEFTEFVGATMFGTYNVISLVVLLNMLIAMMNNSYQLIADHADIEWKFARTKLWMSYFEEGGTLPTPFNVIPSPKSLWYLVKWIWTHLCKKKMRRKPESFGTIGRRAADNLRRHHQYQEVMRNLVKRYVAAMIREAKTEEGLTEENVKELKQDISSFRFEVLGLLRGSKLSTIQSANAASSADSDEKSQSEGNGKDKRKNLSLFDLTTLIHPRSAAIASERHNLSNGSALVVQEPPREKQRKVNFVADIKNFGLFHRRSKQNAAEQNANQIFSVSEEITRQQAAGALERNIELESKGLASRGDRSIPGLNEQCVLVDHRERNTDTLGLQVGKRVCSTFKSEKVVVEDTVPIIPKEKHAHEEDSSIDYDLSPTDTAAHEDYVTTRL
# PROTOCOL_SUMMARY: potentiation of DAMGO-evoked TRPC4 calcium signal – cell-based, HEK293 TRPC4/mu-opioid, Fluo-4 calcium, EC20 DAMGO, dose response (AID 434941);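 note: calcium entry triggered by an EC20 dose of DAMGO at the co-expressed mu-opioid receptor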
# MEASUREMENT_CONTEXT: HEK293 TRPC4/mu-opioid cells, Fluo-4 calcium fluorescence; series mostly up to 20 µM
Measured potencies and affinities stand elsewhere. Activity calls are given as the source filed them.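 Rule for the calls: active = earlier screen potentiator hit that boosts the TRPC4 ion channel at some dose, with a dose response; inactive = no potentiation, no dose response, or not a prior hit.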
MEASUREMENT_LABEL: outcome

# example entries with known answers
Cc1cc(Oc2ccc(C(C)(C)C)cc2)nc(N2CCOCC2)n1 : inactive
Cc1cc2cc(CN(Cc3cccs3)C(=S)NCc3ccco3)c(=O)[nH]c2cc1C : inactive
Cc1cc(Nc2ccc3c(c2)OCCO3)c2ccccc2n1 : inactive
COc1cc(OC)cc(C(=O)NC(=S)NNC(=O)Cc2cccs2)c1 : inactive
CCOC(=O)c1oc2ccccc2c1CN1CCCCC1 : inactive
CC1CC(C)CN(CCCNC(=O)c2ccc(N3CCCC3=O)cc2)C1 (stereo not drawn) : inactive

Q: Given the compound `CN(C)CCOc1ccc2ccccc2c1` , what is its reported outcome?
A: inactive

Q: Quick one: Cc1ccc(S(=O)(=O)NC(C(=O)Oc2cc3oc(=O)cc(C)c3cc2Cl)C(C)C)cc1 (stereo not drawn)
A: inactive

Q: Quick one: `Cc1cccc(OCCn2c(=O)sc3ccccc32)c1`
A: inactive

Q: Quick one: COc1ccc(C2CC(c3ccccc3)Nc3nc(NC(=O)c4cccs4)nn32)cc1 (stereo not drawn)
A: inactive
